Consider the following sequences; for each one, report its PBM binding z-score.
# Tested on: LXRa:RXRa (NR concentration 270 nM, RXRa partner concentration 90 nM)
# method.notes: PBM binding z-score (relative to random genomic background probes); higher = stronger binding; sequences stand for … in GC…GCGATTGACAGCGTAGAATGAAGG
Give bare numbers.

| chain | readout.number |
| --- | --- |
| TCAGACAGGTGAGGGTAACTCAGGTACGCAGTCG | 1.36 |

Batch lookup, PBM binding z-score per entry.
1. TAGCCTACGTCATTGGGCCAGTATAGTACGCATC
2. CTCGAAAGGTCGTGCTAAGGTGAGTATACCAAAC

[-0.86, 4.12]

###

# Tested on: RXRa homodimer (NR concentration 180 nM)
# method.notes: PBM binding z-score (relative to random genomic background probes); higher = stronger binding; sequences stand for … in GC…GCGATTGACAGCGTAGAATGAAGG
Would you mind labelling by PBM binding z-score? At or over 2 is 1 (yes), under is 0 (no).

Example cases with answers are listed next.
| chain | cat |
| --- | --- |
| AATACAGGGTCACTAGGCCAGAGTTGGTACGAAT | 1 (yes) |
| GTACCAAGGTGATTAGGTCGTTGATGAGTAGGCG | 0 (no) |
| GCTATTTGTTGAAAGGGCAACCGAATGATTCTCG | 0 (no) |
| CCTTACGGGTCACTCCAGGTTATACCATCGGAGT | 1 (yes) |
| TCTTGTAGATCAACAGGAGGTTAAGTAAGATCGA | 0 (no) |
| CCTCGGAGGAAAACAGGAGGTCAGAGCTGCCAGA | 0 (no) |

Does the sequence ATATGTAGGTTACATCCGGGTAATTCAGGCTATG have recorded PBM binding z-score that is 2 or more?
0 (no)

Is it the case that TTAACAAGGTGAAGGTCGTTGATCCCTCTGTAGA has PBM binding z-score reaching or exceeding 2?
0 (no)

Can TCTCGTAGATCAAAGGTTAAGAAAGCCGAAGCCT be said to have PBM binding z-score at or above 2?
1 (yes)

Please tell me: is the sequence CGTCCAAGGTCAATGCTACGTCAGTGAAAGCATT at or over 2 in terms of PBM binding z-score?
1 (yes)

Assess whether reported PBM binding z-score for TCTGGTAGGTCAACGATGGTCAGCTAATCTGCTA sits at 2 or higher.
1 (yes)

# check: PBM binding z-score of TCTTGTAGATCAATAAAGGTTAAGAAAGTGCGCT is greater than or equal to 2
0 (no)

Does PBM binding z-score meet or surpass 2 for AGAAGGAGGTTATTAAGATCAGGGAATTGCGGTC ?
0 (no)

Could you verify whether the entry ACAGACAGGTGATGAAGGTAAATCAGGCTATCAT shows PBM binding z-score of no less than 2?
0 (no)

Check the entry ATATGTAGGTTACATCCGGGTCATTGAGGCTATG : does PBM binding z-score equal or exceed 2?
1 (yes)

I'd appreciate it if you could say whether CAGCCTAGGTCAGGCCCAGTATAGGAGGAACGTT has PBM binding z-score at least equal to 2.
0 (no)

Quick check, PBM binding z-score >= 2? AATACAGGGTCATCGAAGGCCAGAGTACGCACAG
1 (yes)

Please indicate if the recorded PBM binding z-score for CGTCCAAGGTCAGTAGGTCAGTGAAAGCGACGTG meets or exceeds 2.
1 (yes)

Item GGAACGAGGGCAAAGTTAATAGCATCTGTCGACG with PBM binding z-score of 2 or above?
0 (no)

Test whether the sequence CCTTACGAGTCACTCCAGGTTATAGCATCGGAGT records PBM binding z-score of 2 or higher.
0 (no)

Is reported PBM binding z-score greater than or equal to 2 here: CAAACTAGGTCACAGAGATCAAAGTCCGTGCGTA
1 (yes)

Say whether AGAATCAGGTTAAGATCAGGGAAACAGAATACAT shows PBM binding z-score of 2 or more.
0 (no)

Answer whether PBM binding z-score of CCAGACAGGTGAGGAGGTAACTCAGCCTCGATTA is greater than or equal to 2.
0 (no)

Reported PBM binding z-score reaches at least 2 for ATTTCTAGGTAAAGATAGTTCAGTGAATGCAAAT ?
0 (no)

Please tell me: is the sequence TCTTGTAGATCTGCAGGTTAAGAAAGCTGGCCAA at or over 2 in terms of PBM binding z-score?
0 (no)

// inclusive: PBM binding z-score at least 2? input: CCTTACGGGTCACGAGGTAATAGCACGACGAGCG
1 (yes)
